Origin of the recorded values: patent US20020150888A1

# Tested Target: T1, FLAG-tagged 88C receptor (human)
# T1 chain: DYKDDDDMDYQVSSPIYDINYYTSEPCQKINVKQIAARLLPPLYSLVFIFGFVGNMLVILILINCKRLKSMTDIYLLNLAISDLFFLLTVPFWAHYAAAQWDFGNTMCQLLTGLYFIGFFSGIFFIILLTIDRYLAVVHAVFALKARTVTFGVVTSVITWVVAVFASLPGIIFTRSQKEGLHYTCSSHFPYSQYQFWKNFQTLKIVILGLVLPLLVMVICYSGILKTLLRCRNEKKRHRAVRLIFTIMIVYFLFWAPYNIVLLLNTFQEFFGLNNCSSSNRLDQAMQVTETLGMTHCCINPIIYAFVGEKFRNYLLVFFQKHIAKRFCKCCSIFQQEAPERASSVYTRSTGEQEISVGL
# Assay Remarks: competition of unlabelled ligand with 1.5 nM 125I-MIP-1β on HEK-293 cells transfected with FLAG-tagged 88C
Measured Metric: IC50 (nM)
Please give a number only; it is taken to be in nM.

MIP-1β (ligand, UniProt P13236 24-92, looked up, also called MIP-1p) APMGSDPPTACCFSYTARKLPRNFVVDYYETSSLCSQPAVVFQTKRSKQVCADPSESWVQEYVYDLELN = 7.4

For the binder RANTES (ligand, UniProt P13501 24-91, looked up) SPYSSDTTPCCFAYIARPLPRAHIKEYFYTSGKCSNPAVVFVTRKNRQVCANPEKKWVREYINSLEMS , give its measured IC50 value.
6.9
